- Test system: Trypanosoma cruzi
- experimentNotes: TC cellular growth inhibition
- Assay type: cell-based
- conditionDetails: read-out: EC50 (50% cellular growth inhibition); amastigotes (intracellular form) of TC
pEC50: −log10 of the molar value.
measurementLabel: pEC50

Dear colleague, I am looking for the recorded pEC50 of the following molecule: O=C(NC(Cn1ccnc1)c1ccccc1)c1ccc(-c2ccc(Cl)cc2)cc1 (stereo not shown)
> 6.00

// provenance: paper PMC2715142
